Hey, just so you know, these numbers are from patent US20250059205A1.

This section presents compounds with their documented pIC50 values.
# system name: His-tagged KRAS G12D protein (Homo sapiens, UniProt P01116, G12D)
# Sequence (P01116 1-188 isoform P01116-2 G12D): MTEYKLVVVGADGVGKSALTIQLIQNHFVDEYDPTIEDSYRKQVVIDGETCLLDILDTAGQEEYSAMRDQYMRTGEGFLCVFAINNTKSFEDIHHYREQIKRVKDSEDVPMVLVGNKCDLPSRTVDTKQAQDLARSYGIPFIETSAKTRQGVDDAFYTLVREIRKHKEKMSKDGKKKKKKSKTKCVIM
# experiment summary: KRAS G12D TR-FRET Assay
pIC50: −log10 of the molar value.
measure name: pIC50

Oc1cc(-c2c(Cl)cc3c(N4C[C@H]5CC[C@@H](C4)N5)nc(OC[C@@]45CCCN4C[C@H](F)C5)nc3c2F)c2ccccc2c1; 8.52
CCc1c(F)ccc2cc(O)cc(-c3ccc4c(N5C[C@H]6CC[C@@H](C5)N6)nc(OCCC(C)(C)O)nc4c3F)c12; 7.80
CCc1cccc2cc(O)cc(-c3ccc4c(N5C[C@@H]6CC[C@H]5CN6)nc(OC[C@@]56CCCN5C[C@H](F)C6)nc4c3F)c12; 8.40
C#Cc1c(F)ccc2cc(O)cc(-c3c(F)cc4c(N5C[C@H]6CC[C@@H](C5)N6)nc(OC[C@@]56CCCN5C[C@H](F)C6)nc4c3F)c12; 8.40
Cc1c(Cl)cc2cn[nH]c2c1-c1ccc2c(N3C[C@H]4CC[C@@H](C3)N4)nc(OC[C@@]34CCCN3C[C@H](F)C4)nc2c1F; 7.57
Cc1c(-c2cc(O)cc3ccccc23)ccc2c(N3C[C@H]4CC[C@@H](C3)N4)nc(OC[C@@]34CCCN3C[C@H](F)C4)nc12; 8.10
